Just for reference, patent US10239957B2 is where these values come from.

Measured In vitro dddCt (vs. baseline SCE dose) of individual entries
System: CTNNB1
Test: In vitro DMD assay: mRNA silencing enhancement by peptide conjugates after siRNA-IV treatment
Assay type: cell-based
Settings: Targeted peptide dose 40 nM; primary mouse hepatocytes; siRNA-IV 125 nM baseline
Where no end group is shown, it is not given here. TGN = not defined here
Reported endpoint: In vitro dddCt (vs. baseline SCE dose)

TGN-S-S-Seq-ID-54 (L) (C(TGN)FFGAIWEFIRSILEGLIDGWYGYGRKKRRQRR; reading uncertain; also: disulfide-linked to TGN peptide via Cys; listed as Homo sapiens) ... −0.07
TGN-S-S-SEQ ID NO: 1712 (L): TGN-S-S-peptide; peptide CFLGALWKALSELLKNLIDWWNG (C(TGN)FLGALWKALSELLKNLIDWWNG; reading uncertain; also: TGN disulfide conjugate at Cys1; listed as Homo sapiens) ... 0.07
TGN-S-S-Seq-ID-61 (D) (CRRQRRKKRGYGYWWDILGKWGNEIFGEIAEFLG; not fully specified; TGN disulfide conjugate; D-amino acids; listed as Homo sapiens) ... 0.08
TGN-S-S-SEQ ID NO: 1713 (L) (C(TGN)GLRHGELEELSHEEGLENLIDWWNG; reading uncertain; also: TGN disulfide conjugate at Cys1; listed as Homo sapiens) ... 0.21

====

Test system: CTNNB1
Assay: In vitro DMD assay: mRNA silencing enhancement by peptide conjugates after siRNA-IV treatment
Assay type: cell-based
Conditions: Targeted peptide dose 5000 nM; primary mouse hepatocytes; siRNA-IV 125 nM baseline
Where no end group is shown, it is not given here. TGN = not defined here
Reported endpoint: In vitro dddCt (vs. baseline SCE dose)

TGN-S-S-SEQ ID NO: 1740 (L): TGN-S-S-peptide; peptide GLFEAIEGFIENGWEGLAELAEALEALAAGGSC (GLFEAIEGFIENGWEGLAELAEALEALAAGGSC(TGN); reading uncertain; also: TGN linked to Cys via disulfide, TGN not defined; listed as Homo sapiens) ... −0.06
TGN-S-S-Seq-ID-57 (L) (C(TGN)GLFGALLELLESLWKGLLEWYGRKKRRQRR; reading uncertain; also: disulfide-linked to TGN peptide via Cys; listed as Homo sapiens) ... 0.09
TGN-S-S-SEQ ID NO: 1712 (L): TGN-S-S-peptide; peptide CFLGALWKALSELLKNLIDWWNG (C(TGN)FLGALWKALSELLKNLIDWWNG; reading uncertain; also: TGN disulfide conjugate at Cys1; listed as Homo sapiens) ... −0.2

====

Tested on: CTNNB1
Assay: In vitro DMD assay: mRNA silencing enhancement by peptide conjugates after siRNA-IV treatment
Assay type: cell-based
Details: Targeted peptide dose 8 nM; primary mouse hepatocytes; siRNA-IV 125 nM baseline
Where no end group is shown, it is not given here. TGN = not defined here
# maps each entry to its In vitro dddCt (vs. baseline SCE dose)
Reported endpoint: In vitro dddCt (vs. baseline SCE dose)

TGN-S-S-Seq-ID-54 (L) (C(TGN)FFGAIWEFIRSILEGLIDGWYGYGRKKRRQRR; reading uncertain; also: disulfide-linked to TGN peptide via Cys; listed as Homo sapiens) ... 0.03
TGN-S-S-SEQ ID NO: 1741 (L) (GLFGALAEALAEALAEHLAEALAEALEALAAGGSC(TGN); reading uncertain; also: TGN linked to Cys via disulfide, TGN not defined; listed as Homo sapiens) ... 0.03
TGN-S-S-SEQ ID NO: 1713 (L) (C(TGN)GLRHGELEELSHEEGLENLIDWWNG; reading uncertain; also: TGN disulfide conjugate at Cys1; listed as Homo sapiens) ... 0.21
TGN-S-S-SEQ ID NO: 1740 (L): TGN-S-S-peptide; peptide GLFEAIEGFIENGWEGLAELAEALEALAAGGSC (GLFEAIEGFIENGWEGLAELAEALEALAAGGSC(TGN); reading uncertain; also: TGN linked to Cys via disulfide, TGN not defined; listed as Homo sapiens) ... 0
